- Target or test system: SMARCA4 (Homo sapiens, UniProt P51532)
- Construct: SMARCA2 and SMARCA4 protein degradation in MV4-11 cells; endogenous in cells; host or cells: MV4-11
- Sequence (P51532 whole entry): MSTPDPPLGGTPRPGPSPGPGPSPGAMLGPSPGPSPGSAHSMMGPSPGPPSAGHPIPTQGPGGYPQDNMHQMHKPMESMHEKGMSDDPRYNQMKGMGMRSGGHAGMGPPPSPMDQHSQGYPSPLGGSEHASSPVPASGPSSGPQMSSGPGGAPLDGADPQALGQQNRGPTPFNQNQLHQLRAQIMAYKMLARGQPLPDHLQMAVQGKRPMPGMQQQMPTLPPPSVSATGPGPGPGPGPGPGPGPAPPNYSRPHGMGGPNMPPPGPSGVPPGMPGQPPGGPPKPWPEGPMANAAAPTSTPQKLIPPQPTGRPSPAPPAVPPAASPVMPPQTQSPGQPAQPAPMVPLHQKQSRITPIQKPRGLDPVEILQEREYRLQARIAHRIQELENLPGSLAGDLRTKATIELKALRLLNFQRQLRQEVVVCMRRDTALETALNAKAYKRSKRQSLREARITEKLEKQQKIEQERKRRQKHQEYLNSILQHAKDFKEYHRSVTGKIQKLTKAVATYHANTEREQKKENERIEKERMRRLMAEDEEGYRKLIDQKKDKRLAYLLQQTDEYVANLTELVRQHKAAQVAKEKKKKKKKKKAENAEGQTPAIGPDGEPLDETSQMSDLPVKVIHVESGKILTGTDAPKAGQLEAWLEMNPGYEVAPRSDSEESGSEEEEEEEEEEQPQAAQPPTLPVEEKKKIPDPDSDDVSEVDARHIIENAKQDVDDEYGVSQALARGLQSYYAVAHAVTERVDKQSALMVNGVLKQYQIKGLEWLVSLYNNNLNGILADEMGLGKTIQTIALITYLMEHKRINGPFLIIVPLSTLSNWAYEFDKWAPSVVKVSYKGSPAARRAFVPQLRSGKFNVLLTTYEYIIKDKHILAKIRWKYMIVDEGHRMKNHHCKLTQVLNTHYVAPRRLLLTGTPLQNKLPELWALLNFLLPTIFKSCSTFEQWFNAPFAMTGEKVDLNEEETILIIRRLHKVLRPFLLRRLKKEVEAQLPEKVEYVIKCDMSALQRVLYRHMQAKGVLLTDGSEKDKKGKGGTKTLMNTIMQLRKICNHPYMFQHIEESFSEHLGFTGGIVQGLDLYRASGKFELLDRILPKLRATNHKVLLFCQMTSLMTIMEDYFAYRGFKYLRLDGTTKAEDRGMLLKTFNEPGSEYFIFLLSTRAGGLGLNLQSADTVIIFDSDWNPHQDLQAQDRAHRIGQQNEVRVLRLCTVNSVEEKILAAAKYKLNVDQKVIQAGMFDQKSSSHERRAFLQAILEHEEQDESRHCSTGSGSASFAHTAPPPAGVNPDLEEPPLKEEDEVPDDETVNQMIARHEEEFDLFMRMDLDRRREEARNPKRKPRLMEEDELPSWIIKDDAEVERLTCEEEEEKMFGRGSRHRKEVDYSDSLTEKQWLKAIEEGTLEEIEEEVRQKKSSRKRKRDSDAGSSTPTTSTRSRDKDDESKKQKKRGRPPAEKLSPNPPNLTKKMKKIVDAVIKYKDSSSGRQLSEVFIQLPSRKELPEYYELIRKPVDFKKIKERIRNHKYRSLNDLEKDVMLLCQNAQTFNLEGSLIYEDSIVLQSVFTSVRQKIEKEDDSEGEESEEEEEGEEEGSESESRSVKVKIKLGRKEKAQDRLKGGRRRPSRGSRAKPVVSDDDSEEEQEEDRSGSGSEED
- Experimental details: SMARCA4 Western blot MV4-11 degradation
- Format: cell-based
- Study conditions: MV4-11, MV4-11 cells, 24 h, read-out: SMARCA4 WB MV411 degradation 24 h: Average Dmax %
// reported Dmax for each item listed

Reference set (4 entries):
1) Cc1ncsc1-c1ccc(CNC(=O)[C@@H]2C[C@@H](O)CN2C(=O)[C@@H](NC(=O)C2CC(N3CCC(n4cc(-c5cc(-c6ccccc6O)nnc5N)cn4)CC3)C2)C(C)(C)C)cc1 (some centres unmarked) = 70 to 90%
2) Cc1ncsc1-c1ccc(CNC(=O)[C@@H]2C[C@@H](O)CN2C(=O)[C@@H](NC(=O)[C@H]2CC[C@H](c3nccc(N4C5CCC4CN(c4cc(-c6ccccc6O)nnc4N)C5)n3)CC2)C(C)(C)C)cc1 = > 90%
3) Cc1ncsc1-c1ccc(CNC(=O)[C@@H]2C[C@@H](O)CN2C(=O)[C@@H](NC(=O)[C@H]2CC[C@H](CCCN3CCC(n4cc(-c5cc(-c6ccccc6O)nnc5N)cn4)CC3)CC2)C(C)(C)C)cc1 = 70 to 90%
4) Cc1ncsc1-c1ccc(CNC(=O)[C@@H]2C[C@@H](O)CN2C(=O)[C@@H](NC(=O)C(=O)N2CCC(c3cnc(N4C5CCC4CN(c4cc(-c6ccccc6O)nnc4N)C5)nc3)CC2)C(C)(C)C)cc1 = 50 to 70%

Fill in: Dmax of `Cc1ncsc1-c1ccc(CNC(=O)[C@@H]2C[C@@H](O)CN2C(=O)[C@@H](NC(=O)[C@H]2CC[C@H](N3CCC(c4cnc(N5C6CCC5CN(c5cc(-c7ccccc7O)nnc5N)C6)nc4)CC3)CC2)C(C)(C)C)cc1` is ___
70 to 90%

Fill in: Dmax of `Cc1ncsc1-c1ccc(CNC(=O)[C@@H]2C[C@@H](O)CN2C(=O)[C@@H](NC(=O)c2ccc(-c3ccc(N4CCC(Cn5cc(-c6cc(-c7ccccc7O)nnc6N)cn5)CC4)cc3)cc2)C(C)(C)C)cc1` is ___
70 to 90%

Fill in: Dmax of `Cc1ncsc1-c1ccc(CNC(=O)[C@@H]2C[C@@H](O)CN2C(=O)[C@@H](NC(=O)CN(C)CC#Cc2cnc(N3C4CCC3CN(c3cc(-c5ccccc5O)nnc3N)C4)nc2)C(C)(C)C)cc1` is ___
> 90%

Fill in: Dmax of `Cc1ncsc1-c1ccc(CNC(=O)[C@@H]2C[C@@H](O)CN2C(=O)[C@@H](NC(=O)N2CCN(C(=O)c3cnc(N4C5CCC4CN(c4cc(-c6ccccc6O)nnc4N)C5)nc3)CC2)C(C)(C)C)cc1` is ___
> 90%

Fill in: Dmax of Nc1nnc(-c2ccccc2O)cc1-c1cnn(C2CCN(C3CCC(Nc4cccc5c4C(=O)N(C4CCC(=O)NC4=O)C5=O)CC3)CC2)c1 (centres unmarked) is ___
> 90%

Fill in: Dmax of CN(CCCC#Cc1cnc(N2C3CCC2CN(c2cc(-c4ccccc4O)nnc2N)C3)nc1)Cc1ccc2c(c1)n(C)c(=O)n2C1CCC(=O)NC1=O (centres unmarked) is ___
> 90%

Fill in: Dmax of `Cc1ncsc1-c1ccc(CNC(=O)[C@@H]2C[C@@H](O)CN2C(=O)[C@@H](NC(=O)C[C@H]2CC[C@H](c3cnc(N4C5CCC4CN(c4cc(-c6ccccc6O)nnc4N)C5)nc3)CC2)C(C)(C)C)cc1` is ___
> 90%

Fill in: Dmax of CN1C(=O)CCC(n2c(=O)n(C)c3cc(CCCN4CCC(c5cnc(N6C7CCC6CN(c6cc(-c8ccccc8O)nnc6N)C7)nc5)CC4)ccc32)C1=O (centres unmarked) is ___
< 50%

Fill in: Dmax of `NCC#Cc1nccc(N2C3CCC2CN(c2cc(-c4ccccc4O)nnc2N)C3)n1` is ___
70 to 90%

Fill in: Dmax of Cc1ncsc1-c1ccc(CNC(=O)[C@@H]2C[C@@H](O)CN2C(=O)[C@@H](NC(=O)[C@H]2CC3(C2)C[C@H](c2cnc(N4C5CCC4CN(c4cc(-c6ccccc6O)nnc4N)C5)nc2)C3)C(C)(C)C)cc1 (some centres unmarked) is ___
> 90%

Fill in: Dmax of `Cc1ncsc1-c1ccc(CNC(=O)[C@@H]2C[C@@H](O)CN2C(=O)[C@@H](NC(=O)C[C@H]2CC[C@@H](c3nccc(N4C5CCC4CN(c4cc(-c6ccccc6O)nnc4N)C5)n3)CC2)C(C)(C)C)cc1` is ___
> 90%

Fill in: Dmax of Cn1c(=O)n(C2CCC(=O)NC2=O)c2ccc(C#CCCNC(=O)Cc3cnc(N4C5CCC4CN(c4cc(-c6ccccc6O)nnc4N)C5)nc3)cc21 (centres unmarked) is ___
< 50%

Fill in: Dmax of Cc1ncsc1-c1ccc(CNC(=O)[C@@H]2C[C@@H](O)CN2C(=O)[C@@H](NC(=O)CCCCCN2CCCC(n3cc(-c4cc(-c5ccccc5O)nnc4N)cn3)C2)C(C)(C)C)cc1 (some centres unmarked) is ___
< 50%

Fill in: Dmax of `Cc1ncsc1-c1ccc(CNC(=O)[C@@H]2C[C@@H](O)CN2C(=O)[C@@H](NC(=O)CCCCN2CCC(Cn3cc(-c4cc(-c5ccccc5O)nnc4N)cn3)CC2)C(C)(C)C)cc1` is ___
< 50%

Fill in: Dmax of `CC(=O)O[C@@H]1C[C@@H](C(=O)NCc2ccc(-c3scnc3C)cc2)N(C(=O)[C@@H](NC(=O)[C@H]2CC[C@H](c3cnc(N4C5CCC4CN(c4cc(-c6ccccc6O)nnc4N)C5)nc3)CC2)C(C)(C)C)C1` is ___
> 90%

Fill in: Dmax of Cc1ncsc1-c1ccc(CNC(=O)[C@@H]2C[C@@H](O)CN2C(=O)[C@@H](NC(=O)C2CCC(c3cnc(N4C5CCC4CN(c4cc(-c6ccccc6O)nnc4N)C5)nc3)CC2C)C(C)(C)C)cc1 (some centres unmarked) is ___
> 90%

Sourced from patent US12624044B2
